- EXPERIMENTAL_SYSTEM: T1, CRBN, Q96SW2;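 also: pooled lentiviral library of zinc finger degron-EGFP fusions in mCherry-positive Jurkat cells, FACS-sorted after compound exposure, with degron abundance counted by next-generation sequencing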
- T1 chain: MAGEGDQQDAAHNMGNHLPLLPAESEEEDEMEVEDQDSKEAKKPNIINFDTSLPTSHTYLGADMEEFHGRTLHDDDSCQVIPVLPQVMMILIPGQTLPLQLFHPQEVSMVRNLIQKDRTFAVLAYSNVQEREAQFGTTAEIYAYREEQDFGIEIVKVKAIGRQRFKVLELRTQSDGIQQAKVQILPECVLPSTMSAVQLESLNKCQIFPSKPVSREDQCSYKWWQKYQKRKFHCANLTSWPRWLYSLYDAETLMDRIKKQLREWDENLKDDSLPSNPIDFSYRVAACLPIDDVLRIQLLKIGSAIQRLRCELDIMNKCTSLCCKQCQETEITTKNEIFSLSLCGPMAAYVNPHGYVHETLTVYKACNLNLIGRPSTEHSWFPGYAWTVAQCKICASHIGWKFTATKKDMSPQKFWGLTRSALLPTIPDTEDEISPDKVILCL
- ASSAY_OVERVIEW: log2 fold change of degron read counts, EGFP-low vs EGFP+ sorted cells (limma voom), compound-induced degradation; higher = more compound-induced degradation of the degron-EGFP fusion; degrons are variants of IKZF1/3 zinc finger 2; compound dose not given here
- EXPERIMENTAL_CONDITIONS: Jurkat; 18 h; compound: compound 19 (5-tert-butyl-thalidomide)
Over roughly 8,300 sequences, “log2 fold change of degron read counts, EGFP-low vs EGFP+ sorted cells (limma voom), compound-induced degradation” has its median near -1.1; the highest 2% begin near 3.2. The full list was thinned out, with the highest values kept by preference.
EXPERIMENTAL_ENDPOINT: log2 fold change of degron read counts

Sample records with log2 fold change of degron read counts:
FGCEVCGAPFTQKGNLLRHIKL [46F_47G_49E_50V_52G_53A_54P_55F_67L_, Q9UKT9]: 0.82
FDCPICGALFTQKGNLLRHIKL [46F_47D_49P_50I_52G_53A_54L_55F_67L_, Q9UKT9]: -0.924

Query: Identify measured log2 fold change of degron read counts corresponding to FVCEQCGAIFTQKGNLLRHIKL [46F_47V_49E_50Q_52G_53A_54I_55F_67L_, Q9UKT9]
Reply: -2.11

Query: Identify measured log2 fold change of degron read counts corresponding to FCCEVCGAPFTQKGNLLRHIKL [46F_47C_49E_50V_52G_53A_54P_55F_67L_, Q9UKT9]
Reply: 3.23
